Procedure Text: Heat stability: peptide solutions heated at 95° C., then tested for biological activity in the T84 cell-based assay
Type: physicochemical
Condition Parameters: 10 micromolar solution, 90 minutes, read-out T84 cell-based assay
Positions of bridges follow the written chain, without caps; N, C: chain ends. No end group written: not given here.
Reported Endpoint: biological activity after heating for 90 minutes, relative to original value

# Substance, Result
records = [
    ("[Glu^2, Glu^3]-UG (NEECELCVNVACTGCL; ends and bridges not checked; cysteine pairing not given here; UniProt Q16661 97-112, looked up, variant D2E D3E) [SP 302, uroguanylin analog, double substitution of Asp's for Glu's]", "about 80%"),
    ("bicyclo[4,12; 7,15]Asn^1-Asp^2-Asp^3-Cys^4-Glu^5-Leu^6-Cys^7-Val^8-Asn^9-Val^10-Ala^11-Cys^12-Thr^13-Gly^14-Cys^15-Leu^16 (NDDCELCVNVACTGCL; disulfide 4-12, 7-15; listed as Homo sapiens) [SP 301, human uroguanylin, parent compound, reference compound]", "about 80%"),
    ("[Glu^2]-UG (NEDCELCVNVACTGCL; ends and bridges not checked; cysteine pairing not given here; UniProt Q16661 97-112, looked up, variant D2E) [SP 303, uroguanylin analog with Glu in position 2]", "about 80%"),
]

---

System Under Test: guanylate cyclase receptor (Homo sapiens)
Construct: host or cells: T84 human colon carcinoma cells
Sequence (P25092 24-1073): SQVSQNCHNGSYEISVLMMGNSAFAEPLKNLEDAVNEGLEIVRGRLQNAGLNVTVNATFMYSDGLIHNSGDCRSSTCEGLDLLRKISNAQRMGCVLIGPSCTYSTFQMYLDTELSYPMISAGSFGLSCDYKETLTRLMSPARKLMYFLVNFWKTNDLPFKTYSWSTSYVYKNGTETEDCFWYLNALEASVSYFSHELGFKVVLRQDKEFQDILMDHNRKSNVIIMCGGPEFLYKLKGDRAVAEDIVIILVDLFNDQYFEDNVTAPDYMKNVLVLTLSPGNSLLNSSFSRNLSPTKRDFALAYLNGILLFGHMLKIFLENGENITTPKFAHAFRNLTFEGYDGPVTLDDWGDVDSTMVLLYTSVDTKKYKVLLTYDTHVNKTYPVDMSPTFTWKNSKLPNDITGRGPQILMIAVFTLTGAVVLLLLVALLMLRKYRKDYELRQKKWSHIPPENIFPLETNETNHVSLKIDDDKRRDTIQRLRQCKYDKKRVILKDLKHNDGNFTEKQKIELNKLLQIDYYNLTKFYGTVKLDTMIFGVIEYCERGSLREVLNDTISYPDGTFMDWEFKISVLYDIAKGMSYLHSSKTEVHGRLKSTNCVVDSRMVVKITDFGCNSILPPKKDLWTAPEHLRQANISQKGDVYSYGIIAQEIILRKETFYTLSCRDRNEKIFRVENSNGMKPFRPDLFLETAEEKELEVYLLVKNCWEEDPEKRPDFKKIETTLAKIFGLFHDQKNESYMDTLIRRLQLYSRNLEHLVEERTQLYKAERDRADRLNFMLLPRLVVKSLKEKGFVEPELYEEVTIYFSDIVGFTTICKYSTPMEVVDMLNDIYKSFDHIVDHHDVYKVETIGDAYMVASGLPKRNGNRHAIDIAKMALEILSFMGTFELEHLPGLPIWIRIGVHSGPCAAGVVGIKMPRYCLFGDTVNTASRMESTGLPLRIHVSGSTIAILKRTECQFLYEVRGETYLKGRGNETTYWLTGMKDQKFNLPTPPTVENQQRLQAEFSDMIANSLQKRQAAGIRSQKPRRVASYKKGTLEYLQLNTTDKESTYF
Procedure Text: T84 cell-based assay for determining the intracellular levels of cGMP
Condition Parameters: T84 cells, 1 micromolar peptide agonist, 30 minutes
Positions of bridges follow the written chain, without caps; N, C: chain ends. No end group written: not given here.
Reported Endpoint: cGMP Level (intracellular cGMP level observed in T84 cells) (pmol/well)
Kindly provide the numeric value in pmol/well only, without the unit symbol.

Given [Glu^2]-UG (NEDCELCVNVACTGCL; ends and bridges not checked; cysteine pairing not given here; UniProt Q16661 97-112, looked up, variant D2E) [SP 303, uroguanylin analog with Glu in position 2] , state its recorded cGMP Level (intracellular cGMP level observed in T84 cells).
195

Given [Glu^2, Glu^3]-UG (NEECELCVNVACTGCL; ends and bridges not checked; cysteine pairing not given here; UniProt Q16661 97-112, looked up, variant D2E D3E) [SP 302, uroguanylin analog, double substitution of Asp's for Glu's] , state its recorded cGMP Level (intracellular cGMP level observed in T84 cells).
225

Given Asn^1 Asp^2 Glu^3 Cys^4 Glu^5 Leu^6 Cys^7 Val^8 Asn^9 Val^10 Ala^11 Cys^12 Thr^13 Gly^14 Cys^15 Leu^16 (NDECELCVNVACTGCL; disulfide 4-12, 7-15) [SP 304, [Glu^3]-UG, [4,12; 7,15] bicycle with two disulfide linkages] , state its recorded cGMP Level (intracellular cGMP level observed in T84 cells).
315

Given SP 316: 14-residue peptide Glu Cys Glu Leu Cys Val Asn Val Ala Cys Thr Gly Cys Leu, positions 3-16, disulfides 4-12 and 7-15 (ECELCVNVACTGCL; disulfide 2-10, 5-13) , state its recorded cGMP Level (intracellular cGMP level observed in T84 cells).
275

Given bicyclo[4,12; 7,15]Asn^1-Asp^2-Asp^3-Cys^4-Glu^5-Leu^6-Cys^7-Val^8-Asn^9-Val^10-Ala^11-Cys^12-Thr^13-Gly^14-Cys^15-Leu^16 (NDDCELCVNVACTGCL; disulfide 4-12, 7-15; listed as Homo sapiens) [SP 301, human uroguanylin, parent compound, reference compound] , state its recorded cGMP Level (intracellular cGMP level observed in T84 cells).
205

---

System Under Test: guanylate cyclase receptor (Homo sapiens)
Construct: host or cells: T84 human colon carcinoma cells
Procedure Text: T84 cell-based assay for determining the intracellular levels of cGMP
Condition Parameters: T84 cell-based assay, text summary of Table 4
Positions of bridges follow the written chain, without caps; N, C: chain ends. No end group written: not given here.
Reported Endpoint: ability to enhance intracellular levels of cGMP (ranking in words)

# Substance, Result
records = [
    ("bicyclo[4,12; 7,15]Asn^1-Asp^2-Asp^3-Cys^4-Glu^5-Leu^6-Cys^7-Val^8-Asn^9-Val^10-Ala^11-Cys^12-Thr^13-Gly^14-Cys^15-Leu^16 (NDDCELCVNVACTGCL; disulfide 4-12, 7-15; listed as Homo sapiens) [SP 301, human uroguanylin, parent compound, reference compound]", "somewhat weaker"),
    ("[Glu^2, Glu^3]-UG (NEECELCVNVACTGCL; ends and bridges not checked; cysteine pairing not given here; UniProt Q16661 97-112, looked up, variant D2E D3E) [SP 302, uroguanylin analog, double substitution of Asp's for Glu's]", "somewhat weaker"),
    ("[Glu^2]-UG (NEDCELCVNVACTGCL; ends and bridges not checked; cysteine pairing not given here; UniProt Q16661 97-112, looked up, variant D2E) [SP 303, uroguanylin analog with Glu in position 2]", "somewhat weaker"),
]
